assay_remarks: Brain penetration and plasma/brain pharmacokinetics in combination with Temodar or Lynparza
experimental_context: mouse, plasma, iv, 10 mg/kg, Vss—obs, plasma, 10 mg/kg IV + Lynparza 100 mg/kg PO
endpoint: Vd (L/kg)
// note: answer is a bare numeric in L/kg

According to the records, this compound COc1cc2c3c(n(CCCN4CCOCC4)c(=O)c2cc1OC)-c1cc2c(cc1C3=O)OCO2 displays Vd of 10.4

* * *

target_of_assay: 3′-TAMRA-labeled MycG4 DNA
assay_remarks: Fluorescence binding assay
experimental_context: 20° C., 100 mM K+ buffer, pH 7.0; read-out: Apparent Binding Affinity Kd, app
endpoint: Kd (nM)
Your answer is read as nM, so omit the unit and give the number.

Use the examples below as a reference point.
COc1cc2c3c(n(CCCN4CCOCC4)c(=O)c2cc1OC)-c1cc2c(cc1C3=O)OCO2 [LMP400, indotecan] : 301
COc1cc2c3c(n(CCCN4CCC[C@H]4C(N)=O)c(=O)c2cc1OC)-c1nc2c(cc1C3=O)OCO2 [G106] : 55
COc1cc2c3c(n(CCCNCCO)c(=O)c2cc1OC)-c1cc2c(cc1C3=O)OCO2 [LMP744] : 11
COc1cc2c3c(n(CCCN4CCOCC4)c(=O)c2cc1OC)-c1nc2c(cc1C3=O)OCO2 [G101] : 249
COc1cc2c3c(n(CCCNCCO)c(=O)c2cc1OC)-c1cc2c(cc1C3=O)OCO2 [LMP517] : 109
COc1cc2c3c(n(CCCNCCO)c(=O)c2cc1OC)-c1nc2c(cc1C3=O)OCO2 [G105] : 97
COc1cc2c3c(n(CCCn4ccnc4)c(=O)c2cc1OC)-c1cc2c(cc1C3=O)OCO2 [LMP776, indimitecan] : 69
CCNCCCn1c2c(c3cc(OC)c(OC)cc3c1=O)C(=O)c1cc3c(nc1-2)OCO3 [G104] : 55

Shifting focus to the compound that follows.
# lookup: COc1cc2c3c(n(CCCn4ccnc4)c(=O)c2cc1OC)-c1nc2c(cc1C3=O)OCO2 [G102] on 3′-TAMRA-labeled MycG4 DNA, Kd = 147
